- MEASURED ON: T1, 4H3354-AA
- T1 chain: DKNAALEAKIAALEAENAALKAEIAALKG
- EXPERIMENT: two-hybrid library CCmax;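 note: natural log of median RNA to DNA barcode read ratio; higher means stronger binding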
- TEST CONDITIONS: mean of both orientations
OBSERVABLE: interaction score

Query: Would you kindly share the measured interaction score for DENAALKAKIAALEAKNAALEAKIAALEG [4H1845-AA] ?
Result: -1.37

Query: # repeat for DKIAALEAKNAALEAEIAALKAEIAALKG [4H2442-AA]
Result: -1.37

Query: # repeat for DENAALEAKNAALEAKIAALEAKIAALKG [4H1446-AA]
Result: -1.43

Query: # repeat for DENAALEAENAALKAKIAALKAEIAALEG [4H1257-AA]
Result: -1.6

Query: # repeat for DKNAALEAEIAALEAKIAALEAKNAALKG [4H3112-AA]
Result: -1.66
